Reference source: patent US10294202B2

compounds and their reported Plant response rating, Barnyardgrass
- Tested on: barnyardgrass
- procedure text: Test A pre-/postemergence herbicide test
- Assay type: in vivo, Echinochloa crus-galli
- test conditions: Postemergence, 500 g ai/ha; 0 to 100 scale (0 no effect, 100 complete control)

- compound: "O=C1NCC(c2cccc(OC(F)F)c2)C1C(=O)Nc1ccccc1F (stereo not drawn)"
  Plant response rating, Barnyardgrass: 90
- compound: "O=C1NCC(c2cccc(C(F)(F)F)c2)C1C(=O)Nc1ccc(F)c(F)c1F (stereo not drawn)"
  Plant response rating, Barnyardgrass: 90
- compound: "N#Cc1cccc(C2CNC(=O)C2C(=O)Nc2ccccc2F)c1 (racemic)"
  Plant response rating, Barnyardgrass: 60
- compound: "Cc1cccc(C2CN(C(=O)OC(C)(C)C)C(=O)C2C(=O)Nc2ccccc2F)c1 (stereo not drawn)"
  Plant response rating, Barnyardgrass: 50
- compound: "O=C1NCC(c2cccc(-n3ccc(C(F)(F)F)n3)c2)C1C(=O)Nc1cccc(F)c1F (stereo not drawn)"
  Plant response rating, Barnyardgrass: 20
- compound: "CN1CC(c2cccc(C(F)(F)F)c2)C(C(=O)Nc2cccc(F)c2F)C1=O (stereo not drawn)"
  Plant response rating, Barnyardgrass: 90
- compound: "O=C1NCC(c2ccc(Cl)c(C(F)(F)F)c2)C1C(=O)Nc1ccccc1F (racemic)"
  Plant response rating, Barnyardgrass: 80
- compound: "O=C1NCC(c2ccc3ccccc3c2)C1C(=O)Nc1ccccc1C(F)(F)F (racemic)"
  Plant response rating, Barnyardgrass: 30
- compound: "O=C1NCC(c2ccc(OC(F)(F)F)cc2)C1C(=O)Nc1ccccc1F (racemic)"
  Plant response rating, Barnyardgrass: 20
- compound: "O=C1NCC(c2cccc(I)c2)C1C(=O)Nc1cccc(F)c1F (stereo not drawn)"
  Plant response rating, Barnyardgrass: 80
- compound: "O=C1NCC(c2ccc(Cl)cc2Cl)C1C(=O)Nc1ccccc1F (racemic)"
  Plant response rating, Barnyardgrass: 20
- compound: "O=C1NCC(c2cccc(Oc3ccccc3)c2)C1C(=O)Nc1ccc(F)cc1F (stereo not drawn)"
  Plant response rating, Barnyardgrass: 70
- compound: "O=C1NCC(c2cc(F)c(F)c(F)c2)C1C(=O)Nc1cccc([N+](=O)[O-])c1 (stereo not drawn)"
  Plant response rating, Barnyardgrass: 20
- compound: "O=C1NCC(c2cccc(Cl)c2)C1C(=O)Nc1ccccc1F (racemic)"
  Plant response rating, Barnyardgrass: 80
- compound: "O=C1NCC(c2ccc(Cl)c(Cl)c2)C1C(=O)Nc1ccccc1OC(F)(F)F (racemic)"
  Plant response rating, Barnyardgrass: 0
- compound: "CSc1cccc(C2CNC(=O)C2C(=O)Nc2ccc(F)c(F)c2F)c1 (stereo not drawn)"
  Plant response rating, Barnyardgrass: 80
- compound: "O=C1NCC(c2ccc3c(c2)OC(F)(F)O3)C1C(=O)Nc1ccccc1C(F)(F)F (racemic)"
  Plant response rating, Barnyardgrass: 70
- compound: "O=C1NCC(c2ccc(Cl)c(Cl)c2)C1C(=O)Nc1ccccc1Cl (racemic)"
  Plant response rating, Barnyardgrass: 30
